Test: Cellular viability qHTS for adrenocortical cancer (ACC) cell line NCI-H295R (AID 1963990); also: nearly all actives have a fitted effect of over 60% in size
Details: CellTiter-Glo ATP luminescence, 48 h; series mostly up to 46.1 µM
Records with an inconclusive call do not appear. Active and inactive are the calls of the source. Calls follow the shape of the dose curve; as a rule, active = well fitted cell-killing curve with a large enough effect; inconclusive = small, poorly fitted or top-dose-only effect; inactive = flat fitted curve, though single readings scatter.
Could you please pick one outcome from this set? 1 for active, 0 for inactive

Please review the following examples before continuing.
# compound, classification
records = [
    ("COc1cccc2c(NCc3ccccc3)nc(-n3c(N)nc4ccccc43)nc12", 1),
    ("O=S(=O)(O)CCS", 0),
    ("Cn1cncc1C(N)(c1ccc(Cl)cc1)c1ccc2c(c1)c(-c1cccc(Cl)c1)cc(=O)n2C (configuration not stated)", 1),
    ("CNC(=O)c1cccc(-c2ccc3c(N4CCOC[C@@H]4C)nc(N4CCOC[C@@H]4C)nc3n2)c1", 1),
]

Query :: Recorded test outcome, item `CC(=O)Oc1c(C)c(C)c2c(c1C)CC[C@@](C)(CCC[C@H](C)CCC[C@H](C)CCCC(C)C)O2`
Result :: 0

Query :: Assay result, entry `COc1nc(C)nc(Cl)c1NC1=NCCN1` — outcome?
Result :: 0

Query :: Hello, I am checking results. What call was entered for `OC[C@H]1O[C@@H]2O[C@H]3[C@H](O)[C@@H](O)[C@@H](O[C@H]4[C@H](O)[C@@H](O)[C@@H](O[C@H]5[C@H](O)[C@@H](O)[C@@H](O[C@H]6[C@H](O)[C@@H](O)[C@@H](O[C@H]7[C@H](O)[C@@H](O)[C@@H](O[C@H]8[C@H](O)[C@@H](O)[C@@H](O[C@H]1[C@H](O)[C@H]2O)O[C@@H]8CO)O[C@@H]7CO)O[C@@H]6CO)O[C@@H]5CO)O[C@@H]4CO)O[C@@H]3CO` ?
Result :: 0
